# credit: the RNAGym collection of RNA variant scans (doi:10.1021/acssynbio.7b00057)

Reported aptazyme ON/OFF ratio by item:
B1: Pistol ribozyme (parent)
chain: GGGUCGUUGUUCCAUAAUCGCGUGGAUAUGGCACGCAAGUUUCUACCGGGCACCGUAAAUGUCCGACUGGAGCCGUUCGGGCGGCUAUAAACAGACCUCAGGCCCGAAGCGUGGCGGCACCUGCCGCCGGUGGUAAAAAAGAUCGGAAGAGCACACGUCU

variants of: B1; experiment: aptazyme ON/OFF ratio, guanine; higher = stronger switching; co-transcriptional cleavage with and without guanine
Readout type: aptazyme ON/OFF ratio

{"columns": ["Mutation key", "Readout type", "Observed measurement"],
 "data": [
  ["U7A U8G G9U U10G C13U", "aptazyme ON/OFF ratio", 1.23],
  ["U7A U8C U10C U11G C12G C13A", "aptazyme ON/OFF ratio", 1.26],
  ["U7G G9C U10A U11A", "aptazyme ON/OFF ratio", 2.95],
  ["U7G U8C G9A U11G C13U", "aptazyme ON/OFF ratio", 1.19],
  ["U7C U8G U10G U11A C13A", "aptazyme ON/OFF ratio", 1.18],
  ["U7G U8A G9A U10C C13A", "aptazyme ON/OFF ratio", 1.09],
  ["U7C U8G G9A U10C C12U C13G", "aptazyme ON/OFF ratio", 1.07]
]}
